Target: T1, Sla1-3, P32790
T1 sequence (P32790 344-424, looked up): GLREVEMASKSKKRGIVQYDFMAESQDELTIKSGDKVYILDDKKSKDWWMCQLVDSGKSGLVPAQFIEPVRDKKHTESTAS
Test: SPOT array
Conditions: median of control spots 5475
REPORTED_METRIC: SPOT intensity

Below, each entry is followed by its recorded SPOT intensity result.
>  <BINDER>
LKRITSPPLPPRADS

>  <SPOT intensity>
0

$$$$
>  <BINDER>
APKHAPPPVPNETDN

>  <SPOT intensity>
0

$$$$
>  <BINDER>
NPTKSPPPPPSPSTM

>  <SPOT intensity>
1

$$$$

I = ALRRRLPVTRSKINW
II = DTFLPPPPPPPSNFE
III = RKRRTHLRLPLIRSN
IV = RTRRRPPPPPIPSTQ
V = TKIRRRPQQPLTDFT
Ask: Rank order required: SPOT intensity, descending. Your reply should list the labels following the order given in the request.
Result: IV, I, V, III, II
(IV: 1980, I: 73, V: 20, III: 14, II: 0)
